- Measured on: pooled human IgG (human IgG1,2,3 and 4)
I'd appreciate it if you could supply Enzyme Activity Endpoint Assay: Fc values for the items below.
Value expressed in ng/µL; do not type the unit.

Exam item: Reported Enzyme Activity Endpoint Assay: Fc for PRT-186 (protein) MANQEIRYSEVTPYHVTSVWTKGVTPPANFRKIVDGNIAYYHAPYVANQGWYDITKTFNGKDDLLCGAATAGNMLHWWFDQNKDQIKRYLEEHPEKQKINFNGEQMFDVKEAIDTKNHQLDSKLFEYFKEKAFPYLSTKHLGVFPDHVIDMFINGYRLSLTNHGPTPVKEGSKDPRGGIFDAVFTRGDQSKLLTSRHDFKEKNLKEISDLIKKELTEGKALGLSHTYANVRINHVINLWGADFDSNGNLKAIYVTDSDSNASIGMKKYFVGVNSAGKVAISAKEIKEDNIGAQVLGLFTLSTGQDSWNQTN : what is it?
Marked response: 218

Exam item: Need Enzyme Activity Endpoint Assay: Fc, item PRT-332 (protein) MTITSVWTKGVTPPTPEDFRENNEDVLHAPYVANQGWYDITKTFDGKDNLLCGAATAGNMLHWWFDQNKEEIERYLKKHPEKQKIIFNNQEWFDVKAAIDTKDSQTNSKLFNYFRDKAFPGLSARQLGVFPDLVLDMFINGYYLNLPKTQSTDVNRPYQDKDKRGGIFDAVFTRGVQTTLLTARHDLKNKGLNEISDLIKQELTEGKALALSHTYANVRINHVINLWGADFDAEGNLIAIYVTDSDANASIGMKKYAVGVNANGKVAISAKKIEGDNIGAQVLGLFTLSTGQDIWQKLS
Marked response: 277
